testSystem: T1, human EpCAM (human, UniProt P16422 24-314)
T1 construct: whole, on cells; also called Epithelial cell adhesion molecule; CD326
T1 sequence (looked up): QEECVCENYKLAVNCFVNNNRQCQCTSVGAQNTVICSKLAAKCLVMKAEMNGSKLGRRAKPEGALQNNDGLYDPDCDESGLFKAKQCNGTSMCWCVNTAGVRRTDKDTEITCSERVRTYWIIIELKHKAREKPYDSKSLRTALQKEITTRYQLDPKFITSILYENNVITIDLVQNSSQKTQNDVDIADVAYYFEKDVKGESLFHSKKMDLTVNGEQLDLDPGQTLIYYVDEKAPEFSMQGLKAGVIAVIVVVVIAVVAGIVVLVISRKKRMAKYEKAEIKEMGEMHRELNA
testDetails: flow cytometry, scFv periplasmic preparation on human EpCAM transfected CHO cells
quantity: binding result

# binding result of scFv PM75-A10 (scFv, Tested as periplasmic preparation from E. coli; also called PM75A10-VH-VL; not shown: His6-tag) scFv: QVQLVQSGAEVKKPGASVKLSCKASGYTFTYFDINWVRQTPEQGLEWMGGISPGDGNTNYNENFKGRVTMTRDTSSSTAYMELSRLRSDDTAVYYCARDGNFPYYAMVNWGQGTTVTVSSGGGGSGGGGSGGGGSDVVMTQSPLSLPVTLGEPASISCRSSQSLVYSNGNTYLHWYQQKPGQSPRLLIYKVSNRFSGVPDRFSGSGSGTDFTLKISRVEAEDVGVYFCSQSTHVPYTFGQGTKLEIKDYKDDDDK = no binding

Summary for this binder, scFv PM52-C3 (scFv, Tested as periplasmic preparation from E. coli; also called PM52C3-VH-VL; not shown: His6-tag) scFv: QVQLVQSGAEVKKPGASVKLSCKASGYTFTYFDINWVRQTPEQGLEWMGGISPGDGNTNYNENFKGRVTMTRDTSSSTAYMELSRLRSDDTAVYYCARDGNFPYYAMDSWGQGTTVTVSSGGGGSGGGGSGGGGSDVVMTQSPLSLPVTLGEPASISCRSSQSLVYSNGNTYLHWYQQKPGQSPRLLIYKVSNRFSGVPDRFSGSGSGTDFTLKISRVEAEDVGVYFCSQSTHVPYTFGQGTKLEIKDYKDDDDK : binding result is no binding
